system: ATP; assay: switch fluorescence ratio, 500 uM ATP over buffer (Cy3 cluster intensity, sum of 5 cycles each) (fold (ratio)); higher = stronger signal-on switching upon ATP binding; sequences stand for … in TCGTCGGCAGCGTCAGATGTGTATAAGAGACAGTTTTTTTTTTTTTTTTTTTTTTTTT…TC; conditions: aptamer strand: ATP DNA aptamer (quencher-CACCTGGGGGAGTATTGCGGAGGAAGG + anchor), 100 nM annealed; ATP concentration: 500 uM;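 also: ATP exposure 15 min at 22 °C before imaging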
# switch fluorescence ratio per record follows
# print the numeric value only

* TCGGGGTCGG | 1.03
* TAGGACGGTG | 0.992

Q: // lookup switch fluorescence ratio for TTTTTTTGTT
Ans: 1

Q: Could you share which switch fluorescence ratio value was measured for GACGGCTGGT ?
Ans: 1.01

###

The following sequences are shown together with reported switch fluorescence ratio values.
test system: ATP; experiment: switch fluorescence ratio, 500 uM ATP over buffer (Cy3 cluster intensity, sum of 5 cycles each) (fold (ratio)); higher = stronger signal-on switching upon ATP binding; sequences stand for … in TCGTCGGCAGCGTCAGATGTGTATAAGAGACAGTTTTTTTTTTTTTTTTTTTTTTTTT…TC; settings: aptamer strand: ATP DNA aptamer (quencher-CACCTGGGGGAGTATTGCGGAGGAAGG + anchor), 100 nM annealed; ATP concentration: 500 uM;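 also: ATP exposure 15 min at 22 °C before imaging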

* TTTTTTGGAC | 1.01
* GGTTGCATTA | 0.992
* GCAAAACGGG | 1.02
* TGCGTGGCGG | 1.02

Q: If you can, please state the reported switch fluorescence ratio value of AAGCCAGCTC .
Ans: 1.02

Q: Can you look up the measured switch fluorescence ratio of GATGTAATCT for me?
Ans: 1.02

Q: Could you tell me which switch fluorescence ratio is on file for TGTTTTGAGC ?
Ans: 1

###

system: ATP; test: switch fluorescence ratio, 500 uM ATP over buffer (Cy3 cluster intensity, sum of 5 cycles each) (fold (ratio)); higher = stronger signal-on switching upon ATP binding; sequences stand for … in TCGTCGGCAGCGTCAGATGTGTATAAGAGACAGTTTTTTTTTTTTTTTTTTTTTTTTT…TC; conditions: aptamer strand: ATP DNA aptamer (quencher-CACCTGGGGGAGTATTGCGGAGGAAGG + anchor), 100 nM annealed; ATP concentration: 500 uM;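 also: ATP exposure 15 min at 22 °C before imaging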
# switch fluorescence ratio per record follows
Output spec: single numeric token, no unit.

Example sequences with recorded switch fluorescence ratio:
• TTGCAAATCG = 1.11
• TTTTAAAGGC = 1.02

Let's switch to this sequence now.
Q: Fill blank: measured switch fluorescence ratio of the sequence CTTATTATGG is ____.
Ans: 0.975

###

The entries below are paired with their reported switch fluorescence ratio.
system: ATP; experiment: switch fluorescence ratio, 500 uM ATP over buffer (Cy3 cluster intensity, sum of 5 cycles each) (fold (ratio)); higher = stronger signal-on switching upon ATP binding; sequences stand for … in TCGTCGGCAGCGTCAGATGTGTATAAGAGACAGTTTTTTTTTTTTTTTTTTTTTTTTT…TC; settings: aptamer strand: ATP DNA aptamer (quencher-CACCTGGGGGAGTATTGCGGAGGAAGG + anchor), 100 nM annealed; ATP concentration: 500 uM;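 also: ATP exposure 15 min at 22 °C before imaging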
Please reply with the number alone, leaving off any unit.

Answered examples (3):
- CGACTAGGTA: 1
- AATTTGTTGG: 0.996
- AATGGAATTG: 0.996

Q: Return reported switch fluorescence ratio; argument: TTTCCCGGGC
Ans: 1.01

Q: For the sequence AGTCGGGCGC , what switch fluorescence ratio is on record?
Ans: 0.983

Q: Request the reported switch fluorescence ratio associated with TTTTGGGGCC
Ans: 1

Q: What switch fluorescence ratio value was documented for this sequence, AGTAGGCCTA ?
Ans: 1.04

Q: Give its switch fluorescence ratio value. Item: CGTGGCGGTA
Ans: 1.04

Q: // returns reported switch fluorescence ratio for input TTCAGTTCGT
Ans: 1.01

Q: // lookup switch fluorescence ratio for TATGTTGTAT
Ans: 0.984

Q: Can you share its switch fluorescence ratio? I mean this sequence: GATGGAGTTC
Ans: 0.983

Q: Given TTACTTGAGG , state its recorded switch fluorescence ratio.
Ans: 1.11

Q: For TATATCAGGT , what is its reported switch fluorescence ratio?
Ans: 1.02

###

test system: ATP; test: switch fluorescence ratio, 500 uM ATP over buffer (Cy3 cluster intensity, sum of 5 cycles each) (fold (ratio)); higher = stronger signal-on switching upon ATP binding; sequences stand for … in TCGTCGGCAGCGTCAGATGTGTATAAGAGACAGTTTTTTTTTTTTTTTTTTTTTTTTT…TC; conditions: aptamer strand: ATP DNA aptamer (quencher-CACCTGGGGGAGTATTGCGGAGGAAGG + anchor), 100 nM annealed; ATP concentration: 500 uM;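 also: ATP exposure 15 min at 22 °C before imaging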
observable: switch fluorescence ratio
Please reply with the value in numeric form only.

- CGTGTTTGGG: 0.994
- GCGGGCCGTC: 1.03
- TAATTTTGCG: 1
- ATTTTTGGG: 1.03
- GGGGTATTTT: 0.997

Q: Form field: switch fluorescence ratio recorded for TTCATGGGGC with ATP (enter value)
Ans: 1.05

Q: Please tell me: switch fluorescence ratio of TATTTGTTCT , system ATP?;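 also: ATP exposure 15 min at 22 °C before imaging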
Ans: 1

Q: Lab request: please report switch fluorescence ratio under test system ATP for ATGTGTGGGA;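 also: ATP exposure 15 min at 22 °C before imaging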
Ans: 1.03

###

test system: ATP; assay: switch fluorescence ratio, 500 uM ATP over buffer (Cy3 cluster intensity, sum of 5 cycles each) (fold (ratio)); higher = stronger signal-on switching upon ATP binding; sequences stand for … in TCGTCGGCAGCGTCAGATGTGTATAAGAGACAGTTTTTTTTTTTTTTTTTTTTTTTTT…TC; conditions: aptamer strand: ATP DNA aptamer (quencher-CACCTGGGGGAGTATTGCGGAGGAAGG + anchor), 100 nM annealed; ATP concentration: 500 uM;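 also: ATP exposure 15 min at 22 °C before imaging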
observable: switch fluorescence ratio
Respond with the number and no other words.

Guide cases for switch fluorescence ratio, answers given:
* AGGGGTTATG | 1
* CGATGAATTG | 0.981
* TTTTGCAGCT | 1
* TTAAACGAGT | 0.997
* TAGGCGGGGG | 1

Q: Reported switch fluorescence ratio for TAAGTTAGGG : what is it?
Ans: 0.972

Q: Look at this sequence and give its reported switch fluorescence ratio. GGTCGTTGAA
Ans: 1.02

###

// values below are reported switch fluorescence ratio
tested on: ATP; test: switch fluorescence ratio, 500 uM ATP over buffer (Cy3 cluster intensity, sum of 5 cycles each) (fold (ratio)); higher = stronger signal-on switching upon ATP binding; sequences stand for … in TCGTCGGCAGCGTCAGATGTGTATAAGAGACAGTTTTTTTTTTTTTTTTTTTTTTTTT…TC; conditions: aptamer strand: ATP DNA aptamer (quencher-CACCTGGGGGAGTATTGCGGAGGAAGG + anchor), 100 nM annealed; ATP concentration: 500 uM;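 also: ATP exposure 15 min at 22 °C before imaging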
Please give only the number in your answer, with no unit.

For orientation, consider the following solved cases.
• TGCCCGTACG = 1
• CTCATAACAT = 1.01

Q: Quick check: switch fluorescence ratio of GGGGCACAGC ?
Ans: 1

Q: I have this sequence here, TATAAAAAAT , and I need its recorded switch fluorescence ratio.
Ans: 1

###

tested on: ATP; experiment: switch fluorescence ratio, 500 uM ATP over buffer (Cy3 cluster intensity, sum of 5 cycles each) (fold (ratio)); higher = stronger signal-on switching upon ATP binding; sequences stand for … in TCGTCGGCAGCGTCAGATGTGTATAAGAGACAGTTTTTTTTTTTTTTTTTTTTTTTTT…TC; conditions: aptamer strand: ATP DNA aptamer (quencher-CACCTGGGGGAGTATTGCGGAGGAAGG + anchor), 100 nM annealed; ATP concentration: 500 uM;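 also: ATP exposure 15 min at 22 °C before imaging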
Entries and their switch fluorescence ratio
Give only the figure.

Consider the following illustrative entries.
* CATGGTAAGT | 0.994
* TCAAACCGGT | 0.983
* GTGTTTAGCT | 0.992
* TTTAGGGTAA | 1
* TCCTAATGGG | 0.985

Q: // switch fluorescence ratio lookup, key: CGGTGGTTGA
Ans: 1.01

Q: Look up switch fluorescence ratio: TGAGGCTATG
Ans: 1

Q: Look up switch fluorescence ratio: TGGGATATAG
Ans: 0.994

Q: I am curious: what switch fluorescence ratio value has been reported for CATCATGTTT ?
Ans: 0.984

###

Let's look at some sequences and their measured switch fluorescence ratio.
system: ATP; assay: switch fluorescence ratio, 500 uM ATP over buffer (Cy3 cluster intensity, sum of 5 cycles each) (fold (ratio)); higher = stronger signal-on switching upon ATP binding; sequences stand for … in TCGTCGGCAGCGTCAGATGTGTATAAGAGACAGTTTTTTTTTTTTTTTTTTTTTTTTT…TC; settings: aptamer strand: ATP DNA aptamer (quencher-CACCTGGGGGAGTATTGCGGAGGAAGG + anchor), 100 nM annealed; ATP concentration: 500 uM;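 also: ATP exposure 15 min at 22 °C before imaging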
Reply with just the number.

• TTGTATGGG = 0.984
• GCCGCTTGCA = 0.997
• CATTACAACA = 1.02

Continue with the sequence presented below.
Q: Provide the documented switch fluorescence ratio with ATP as the system for TATATGGGGG
Ans: 0.981
